# TARGET OF ASSAY: T1, human tissue factor (human TF, Lake Pharma) (human, UniProt P13726 33-251, limits assumed)
# T1 construct: bought recombinant antigen; also called CD142
# T1 sequence (P13726 33-251 limits assumed): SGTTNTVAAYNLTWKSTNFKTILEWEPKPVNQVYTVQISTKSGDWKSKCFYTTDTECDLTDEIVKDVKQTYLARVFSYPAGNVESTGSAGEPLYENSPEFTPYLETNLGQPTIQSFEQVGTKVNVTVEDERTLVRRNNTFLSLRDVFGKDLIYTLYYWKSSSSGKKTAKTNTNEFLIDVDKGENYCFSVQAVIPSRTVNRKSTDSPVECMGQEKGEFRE
# MEASUREMENT PROTOCOL: Biacore SPR, single-point off-rate (100 nM antigen), antibody captured on anti-Fc
# key: entry, value: koff

>  <BINDER>
SRP2901-B05 (antibody, V domains shown, humanized rabbit antibody, variable regions fused to human IGHG1 and IGKC; also called 2842-G04 HC2/LC2) VH: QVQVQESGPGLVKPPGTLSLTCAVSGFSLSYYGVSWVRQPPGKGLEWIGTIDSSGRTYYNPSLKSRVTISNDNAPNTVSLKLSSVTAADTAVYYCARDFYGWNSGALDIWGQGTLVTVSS VL: DLQLTQSPSTLSASVGDRVTITCRASQSVYSNKYLSWYQQKPGKAPKLLIYKASTLASGVPSRFSGSGSGTEFTLTISSLQPDDFATYYCAAAYSDDSDTAFGQGTKVEIK

>  <koff (s⁻¹)>
0.000736

$$$$
>  <BINDER>
SRP2901-D03 (antibody, V domains shown, humanized rabbit antibody, variable regions fused to human IGHG1 and IGKC; also called 2842-B01 HC3/LC1) VH: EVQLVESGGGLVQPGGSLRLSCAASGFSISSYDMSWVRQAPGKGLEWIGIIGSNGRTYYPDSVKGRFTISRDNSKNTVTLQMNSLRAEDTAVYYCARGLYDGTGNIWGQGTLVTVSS VL: DLQMTQSPSSLSASVGDRVTITCRASQSVYGNNWLSWYQQKPGKAPKLLIYGASKLASGVPSRFSGSGSGTQFTLTISSLQPEDFATYYCQGTYYSGDWYFAFGQGTKVEIK

>  <koff (s⁻¹)>
0.000416

$$$$
>  <BINDER>
2842-B01 HC1/LC1 (antibody, V domains shown, humanized rabbit antibody, variable regions fused to human IGHG1 and IGKC) VH: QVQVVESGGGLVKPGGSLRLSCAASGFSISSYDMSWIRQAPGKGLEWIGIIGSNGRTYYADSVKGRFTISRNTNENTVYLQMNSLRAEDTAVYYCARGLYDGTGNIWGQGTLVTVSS VL: DLQMTQSPSSLSASVGDRVTITCRASQSVYGNNWLSWYQQKPGKAPKLLIYGASKLASGVPSRFSGSGSGTQFTLTISSLQPEDFATYYCQGTYYSGDWYFAFGQGTKVEIK

>  <koff (s⁻¹)>
0.000727

$$$$

The reported measurements were obtained from patent US20250122306A1.
